Source listed as PubChem BioAssay (EPA / NIEHS).

Read-out: Interleukin 2 (IL2), IL2 (gene 3558)
Assay: BSK_BT_xIL2: BioMAP Diversity Plus: BT Assay for Interleukin 2 (IL2) Biomarker Activity (AID 2284245)
Settings: primary human B cells with PBMC
Calls of active or inactive are those of the source. Rule for the calls: active = hit-call score of the fitted dose curve at least 0.9, where 1 is the maximum; inactive = score below 0.9.
Select the matching outcome among True for active, False for inactive

Here's what some known entries look like.
molecule=OCCN1CN(CCO)CN(CCO)C1 assigned_class=True
molecule=C=COC(=O)C(C)(C)CCCCCC assigned_class=False
molecule=Clc1ccc(Nc2nnc(Cc3ccncc3)c3ccccc23)cc1 assigned_class=False
molecule=Cc1ccc(N=Nc2c(O)ccc3ccccc23)c(C)c1 assigned_class=False
molecule=O=C(O)CCC(F)(F)C(F)(F)C(F)(F)C(F)(F)C(F)(F)F assigned_class=False
molecule=CCCCCc1ccc(O)cc1 assigned_class=False
molecule=O=C(NO)c1ccccc1 assigned_class=True
molecule=CC[N+](CC)(CC)Cc1ccccc1 assigned_class=False
molecule=Oc1cc2ccccc2cc1O assigned_class=False
molecule="CCCCC(CC)C(=O)OCCOCCOCCOCCOC(=O)C(CC)CCCC (stereo not drawn)" assigned_class=True

Per the assay record, what outcome was assigned to C=CC(=O)OCCC(F)(F)C(F)(F)C(F)(F)C(F)(F)C(F)(F)C(F)(F)C(F)(F)C(F)(F)F ?
False

Now consider COc1cccc(O)c1 .
False

Can you handle COc1cc(OC)nc(NC(=O)NS(=O)(=O)Nc2ccccc2C(=O)N(C)C)n1 next?
False
